- System: L1210 leukemia ip in BDF1 mice, survival T/C
- PROTOCOL_DETAILS: NCI In Vivo Anticancer Drug Screen. Data for tumor model L1210 Leukemia (intraperitoneal) in B6D2F1 (BDF1) mice
- ASSAY_SETUP: endpoint: mean survival time; dose: 12.5 mg/kg/injection; schedule: Q01DX009 (ip); vehicle: saline with Tween-80; higher = longer survival
Inconclusive results and toxic doses are left out.
Would you kindly list T/C for each of these compounds?

// known answers, use as guide
[[record]]
compound = "CCNc1nnc(N=Nc2ccccc2)s1"
result = "97 % of control"

[[record]]
compound = "CCc1cc2c(cc1C(=O)CBr)C(C)(C)CCC2(C)C"
result = "109 % of control"

[[record]]
compound = "CCCCCC(=O)Oc1c(C(C)CC)cc([N+](=O)[O-])cc1[N+](=O)[O-] (stereo unspecified)"
result = "88 % of control"

[[record]]
compound = "CC1=CC(=O)C(C(=O)CC(O)(C(F)(F)F)C(F)(F)F)C(=O)O1 (stereo unspecified)"
result = "92 % of control"

[[record]]
compound = "O=C(CC(=O)C(F)(F)F)c1ccccc1.O=C(CC(=O)C(F)(F)F)c1ccccc1.[Cu]"
result = "95 % of control"


For the next question, use this compound.
Query block: Give its T/C value. Item: C1=C\CCCCCCCC/1
Result block: 104 % of control
